All figures here come from patent US5106851A.

target: Muscarinic M1 (Rattus norvegicus, UniProt P08482); construct: displacement of ^3 H-pirenzepine from cerebral cortex homogenate; from tissue; host or cells: rat cerebral cortex homogenate; experiment: Displacement of 3H-pirenzepine from cerebral cortex homogenate (receptor binding studies in vitro); details: cerebral cortex homogenate, 0.5 nM 3H-pirenzepine, 45 min at 30° C., pH 7.4; read-out: KD, M1 (cortex)
Sequence (P08482 whole entry): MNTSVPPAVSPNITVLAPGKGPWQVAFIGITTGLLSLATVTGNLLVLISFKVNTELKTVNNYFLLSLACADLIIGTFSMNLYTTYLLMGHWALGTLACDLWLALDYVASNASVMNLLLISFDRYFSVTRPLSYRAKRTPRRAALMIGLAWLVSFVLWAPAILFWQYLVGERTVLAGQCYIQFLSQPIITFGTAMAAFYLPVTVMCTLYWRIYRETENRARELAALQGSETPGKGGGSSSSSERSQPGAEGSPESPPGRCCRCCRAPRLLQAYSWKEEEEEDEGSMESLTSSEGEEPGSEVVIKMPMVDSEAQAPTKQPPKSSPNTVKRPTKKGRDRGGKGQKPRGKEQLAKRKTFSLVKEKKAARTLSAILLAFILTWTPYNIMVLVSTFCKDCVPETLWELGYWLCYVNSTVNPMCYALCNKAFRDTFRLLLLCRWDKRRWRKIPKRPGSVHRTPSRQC
observationType: Kd (nM)

[[record]]
mol = "CN1[C@@H]2CC[C@H]1C[C@@H](OC(=O)N1Cc3ccccc3NC1=O)C2"
result = 1


* * *

biological target: guinea pig ileum (Cavia porcellus, UniProt H0W1Z3); construct: A 2 cm section of terminal ileum was prepared; from tissue; host or cells: isolated guinea pig terminal ileum; assay: Functional studies in vitro, isolated guinea pig ileum contracted with bethanechol
Sequence (H0W1Z3 1-590): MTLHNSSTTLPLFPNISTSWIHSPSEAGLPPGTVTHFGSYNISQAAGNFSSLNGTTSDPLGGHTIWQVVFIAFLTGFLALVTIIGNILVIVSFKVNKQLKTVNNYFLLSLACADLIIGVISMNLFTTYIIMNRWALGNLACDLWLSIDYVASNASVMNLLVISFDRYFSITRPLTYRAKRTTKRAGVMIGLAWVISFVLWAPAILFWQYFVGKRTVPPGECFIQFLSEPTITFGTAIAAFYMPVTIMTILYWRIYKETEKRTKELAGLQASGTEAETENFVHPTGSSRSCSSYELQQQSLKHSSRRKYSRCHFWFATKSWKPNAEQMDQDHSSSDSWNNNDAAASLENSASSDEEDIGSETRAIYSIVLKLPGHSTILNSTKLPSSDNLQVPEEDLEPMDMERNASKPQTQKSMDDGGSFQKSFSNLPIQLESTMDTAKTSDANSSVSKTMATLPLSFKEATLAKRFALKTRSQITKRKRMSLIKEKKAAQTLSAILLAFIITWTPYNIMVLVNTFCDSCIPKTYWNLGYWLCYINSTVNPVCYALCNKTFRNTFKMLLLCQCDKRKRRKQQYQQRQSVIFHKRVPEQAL
Kb values by entry
observationType: Kb

[[record]]
compound = "CN1[C@@H]2CC[C@H]1C[C@@H](OC(=O)N1Cc3cc(F)ccc3NC1=O)C2"
observationtype = "Kb"
result = "4.5 nM"

[[record]]
compound = "CN1C2CCC1CC(OC(=O)N1C(=O)Nc3ccccc3C1O)C2 (stereo not shown)"
observationtype = "Kb"
result = "1 nM"

[[record]]
compound = "CN1[C@@H]2CC[C@H]1C[C@@H](OC(=O)N1Cc3ccc(Cl)cc3NC1=O)C2"
observationtype = "Kb"
result = "16 nM"

[[record]]
compound = "CN1[C@@H]2CC[C@H]1C[C@@H](OC(=O)N1Cc3ccccc3NC1=O)C2"
observationtype = "Kb"
result = "1.5 nM"

